B1: Osa-1-4 twister ribozyme (parent)
chain: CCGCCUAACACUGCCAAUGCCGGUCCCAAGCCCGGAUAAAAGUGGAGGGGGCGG

variants of: B1; assay: self-cleavage, relative activity (ratio to wild type); higher = more cleavage; co-transcriptional
Record form. Attribute: self-cleavage. Fill in for each entry.

Given CCGCCUAACACUGCCAAUGCCGGUCCCAAGCCCGGAUAAAUGUGGAGGAGGCGG [A41U G49A] , state its recorded self-cleavage. 0.14

Given CCGCCUAACACUGCCAAUGCAGGUCCCAAGCCAGGAUAAAAGUGGAGGGGGCGG [C21A C33A] , state its recorded self-cleavage. 0.09

Given CCGCCUAAUACCGCCAAUGCCGGUCCCAAGCCCGGAUAAAAGUGGAGGGGGCGG [C9U U12C] , state its recorded self-cleavage. 0.05

Given CCGCCUAACACUGCCAAUGCAGGUCCCAUGCCCGGAUAAAAGUGGAGGGGGCGG [A29U C21A] , state its recorded self-cleavage. 0.05

Given CCGCCUAACACUGCCAAUGACGGUCCCAAGCCCGGAUGAAAGUGGAGGGGGCGG [A38G C20A] , state its recorded self-cleavage. 0.9

Given CCGCCUAACACUUCCAAUGCCGGUCCCAAGCCCGGAUAAAAGUGGAGGGGGCGU [G13U G54U] , state its recorded self-cleavage. 0.04

Given CCGCCUAAUACUGCCAAUGCCGGUCCCAAGCCCGGAUAAAAGUAGAGGGGGCGG [C9U G44A] , state its recorded self-cleavage. 0.76

Given CCGCCUAACACCGCCAAUGCCGGUCCCAAGCCCGGAUAAAAUUGGAGGGGGCGG [G42U U12C] , state its recorded self-cleavage. 0.05

Given CCGCCUAACACUGCCAAUGCCGGACCCAAGCCCGGAUAAUAGUGGAGGGGGCGG [A40U U24A] , state its recorded self-cleavage. 0.06

Given CCGCCUAACACUGCCAAUGCUGGUCCCAAGCCCGGAUAAAAGUGGUGGGGGCGG [A46U C21U] , state its recorded self-cleavage. 0.06

Given CCGCCUAACACGGCCAAUGCCGGUCCAAAGCCCGGAUAAAAGUGGAGGGGGCGG [C27A U12G] , state its recorded self-cleavage. 0.11

Given CCGCCUAACACUGCCAAUGCCAGUCCCAAGCCCGGAUUAAAGUGGAGGGGGCGG [A38U G22A] , state its recorded self-cleavage. 1

Given CCGCCUAACACUGCGUAUGCCGGUCCCAAGCCCGGAUAAAAGUGGAGGGGGCGG [A16U C15G] , state its recorded self-cleavage. 0.31

Given CCGCCUAACACUGCCAAUGACGGACCCAAGCCCGGAUAAAAGUGGAGGGGGCGG [C20A U24A] , state its recorded self-cleavage. 0.37

Given CCGCCUAUCACUGCCAAUGCCGGUCCCAAGCCCGGAUUAAAGUGGAGGGGGCGG [A38U A8U] , state its recorded self-cleavage. 0.25

Given CCGCCUAACACUGCCAAUGUCGGUCCCAAGCCCGGAUAAAAGUGGAGGAGGCGG [C20U G49A] , state its recorded self-cleavage. 0.16

Given CCGCCUAACACUGCCAAUGACUGUCCCAAGCCCGGAUAAAAGUGGAGGGGGCGG [C20A G22U] , state its recorded self-cleavage. 0.53

Given CCGCCUAACACUCCCAAUGCCGGUCCCAAGCCCGGAUAAAAGUAGAGGGGGCGG [G13C G44A] , state its recorded self-cleavage. 0.02

Given CCGCCUAAAACUGCCAAUGACGGUCCCAAGCCCGGAUAAAAGUGGAGGGGGCGG [C20A C9A] , state its recorded self-cleavage. 0.29

Given CCGCCUAACACUGACAAUGCCGGUCCCAAGCCCGGAUAAAAUUGGAGGGGGCGG [C14A G42U] , state its recorded self-cleavage. 0.03

Given CCGCCUAACACUGCCAAUGCAGGCCCCAAGCCCGGAUAAAAGUGGAGGGGGCGG [C21A U24C] , state its recorded self-cleavage. 0.06

Given CCGCCUAACACUGCCAAUGCCGGUCCCAAGCCCGGAUAAAGGUGGAGGGGGCUG [A41G G53U] , state its recorded self-cleavage. 0.25
